System: Human Head and Neck cancer, Fadu
Assay: Relative cell viability CCK-8, Fadu
Type: cell-based
Details: Fadu cells, 10 μM, relative to untreated cells
Parameter: Relative cell viability (%). Scope: all listed entries.

{"columns": ["COMPOUND STRING", "Relative cell viability (%)"],
 "data": [
  ["CC1(C)CN(CCCCCCCCCCCCC(=O)Nc2nc(N)c3[nH]cnc3n2)CCO1", 9.68],
  ["Nc1ncccc1C(=O)NCCCCCCCCCCCCN1CCN(CCO)CC1", 33.03],
  ["Cc1ccc(OC2CCN(CCCCCCCCCCCCNC(=O)c3cccnc3N)CC2)cc1", 17.30],
  ["Cl.Nc1ncccc1C(=O)NCCCCCCCCCCCCN1CC[C@H](N)C1", 26.55]
]}
